biological target: T1, Decoy c-Met (extracellular domain of human c-Met) (human, UniProt P08581 25-932); test: binding ELISA, human c-Met (Decoy)
T1 construct: extracellular domain; also called Decoy Met; monomeric Decoy Met
T1 sequence (P08581 25-932): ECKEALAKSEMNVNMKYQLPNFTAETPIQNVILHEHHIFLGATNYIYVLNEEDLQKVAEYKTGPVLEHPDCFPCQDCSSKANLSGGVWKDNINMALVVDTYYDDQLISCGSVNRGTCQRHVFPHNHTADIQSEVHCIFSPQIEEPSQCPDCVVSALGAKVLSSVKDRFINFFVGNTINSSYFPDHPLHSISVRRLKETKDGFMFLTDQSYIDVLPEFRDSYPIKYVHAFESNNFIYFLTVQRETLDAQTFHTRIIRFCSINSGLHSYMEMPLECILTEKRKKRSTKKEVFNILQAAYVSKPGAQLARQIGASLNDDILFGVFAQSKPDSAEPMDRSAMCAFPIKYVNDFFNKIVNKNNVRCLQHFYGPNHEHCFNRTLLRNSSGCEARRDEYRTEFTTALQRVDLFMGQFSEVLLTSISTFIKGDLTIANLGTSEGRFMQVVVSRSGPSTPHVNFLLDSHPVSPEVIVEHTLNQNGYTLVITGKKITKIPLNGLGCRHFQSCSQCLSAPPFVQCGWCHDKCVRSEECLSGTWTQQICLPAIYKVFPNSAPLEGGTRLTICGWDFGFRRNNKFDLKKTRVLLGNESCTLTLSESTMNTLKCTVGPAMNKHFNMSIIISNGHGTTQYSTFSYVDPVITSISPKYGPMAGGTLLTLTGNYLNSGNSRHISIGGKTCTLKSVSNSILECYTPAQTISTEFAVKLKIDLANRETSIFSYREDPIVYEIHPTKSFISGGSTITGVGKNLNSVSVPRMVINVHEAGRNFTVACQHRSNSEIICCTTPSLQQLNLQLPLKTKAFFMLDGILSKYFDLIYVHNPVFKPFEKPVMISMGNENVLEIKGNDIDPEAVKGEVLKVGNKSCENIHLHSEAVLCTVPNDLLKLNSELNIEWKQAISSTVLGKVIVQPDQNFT
pEC50: −log10 of the molar value.

| binder | pEC50 |
| --- | --- |
| 20A11 mAb (antibody, V domains shown) VH: QVQLVESGGGLVQPGGSLRLSCAASGFTFDDYAMSWVRQAPGKGLEWVSAISWNGSSTYYAESMKGRFTISRDNAKNTLYLQMNSLKSEDTAVYYCAKDLIGSHDYWGQGTQVTVSS VL: QAVLTQPPSVSGTLGKTLTISCAGTSSDVGYGNYVSWYQQLPGTAPKLLIYAVSTRASGIPDRFSGSKSGNTASLTISGLQSEDEADYYCASYRSSNNYAFGAGTKLTVL | 8.37 |
| 38H10 mAb (antibody, V domains shown) VH: EVQLVQPGVELRNPGASVKVSCKASGYIFTMNSIDWVRQAPGQGLEWMGRIDPEDGGTKYAQKFQGRVTFTADTSTSTAYVELNSLRSEDTAVYYCARVDDYYLGYDYWGQGTQVTVSS VL: EIVMTQSPSSVTASAGEKVTINCKSSQSVLWRSNQKNYLAWYQQRLGQSPRLLISWASIRESGVPDRFSGSGSTTDFTLTISSFQPEDAAVYYCQQGYSFPYTFGSGTRLEIK | 9.72 |

Each recorded value in this set is attributed to patent US20120148607A1.
